TESTED_ON: human enzyme NAMPT (full length) (Homo sapiens, UniProt P43490)
Construct: human enzyme NAMPT (full length)
Sequence (P43490 whole entry): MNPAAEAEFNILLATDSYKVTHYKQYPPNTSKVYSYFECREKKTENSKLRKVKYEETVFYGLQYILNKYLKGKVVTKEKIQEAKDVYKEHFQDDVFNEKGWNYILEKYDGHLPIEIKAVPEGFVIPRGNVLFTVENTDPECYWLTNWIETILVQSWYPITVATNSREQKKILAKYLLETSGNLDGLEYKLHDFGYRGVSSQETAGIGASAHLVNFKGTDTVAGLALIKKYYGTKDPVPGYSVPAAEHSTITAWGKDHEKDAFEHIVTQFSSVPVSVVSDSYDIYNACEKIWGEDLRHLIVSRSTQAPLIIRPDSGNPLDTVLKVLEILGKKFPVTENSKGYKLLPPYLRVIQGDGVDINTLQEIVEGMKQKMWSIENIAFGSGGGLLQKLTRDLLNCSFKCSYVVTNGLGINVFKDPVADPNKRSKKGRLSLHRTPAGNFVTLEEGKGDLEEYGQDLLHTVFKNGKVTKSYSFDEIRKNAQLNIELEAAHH
MEASUREMENT_PROTOCOL: NMN fluorescence biochemical assay (stimulation of NMN synthesis by NAMPT)
ASSAY_SETUP: fold change of maximal activation compared to DMSO
MEASUREMENT_LABEL: Enzymatic Emax

As a guide, the following entries are already answered.
[2H]C([2H])(C1CC2(CNC(=O)O2)C1)N1C(=O)c2ccccc2C1Cc1c(Cl)cnn1C (centres unmarked) [Compound 643]: B (3≥B>2)
CC1c2cc(CN3CCC3)ccc2C(=O)N1Cc1ccc2[nH]c(=O)oc2c1 (single isomer, unassigned) [Compound 274]: B (3≥B>2)
CC1c2cc(NC3CCOCC3)ccc2C(=O)N1Cc1ccc2[nH]c(=O)oc2c1 (centres unmarked) [Compound 95]: B (3≥B>2)
Cn1ncc(Cl)c1CC1c2ccccc2C(C)(C)N1CC1CC2(CNC(=O)O2)C1 (centres unmarked) [Compound 565]: A (A>3)
Cn1ncc(Cl)c1CC1c2c(Cl)cccc2C(=O)N1Cc1ccc2[nH]nnc2c1 (centres unmarked) [Compound 339]: A (A>3)

Entry Nc1nnc2cc(CN3C(=O)c4ccccc4C3Cc3ncccc3Br)ccn12 (centres unmarked) [Compound 269] : Enzymatic Emax on human enzyme NAMPT (full length) (Homo sapiens, UniProt P43490) = B (3≥B>2)

Entry COc1ccc(CC2c3ccccc3C(=O)N2Cc2ccc3[nH]c(=O)oc3c2)cc1 (centres unmarked) [Compound 213] : Enzymatic Emax on human enzyme NAMPT (full length) (Homo sapiens, UniProt P43490) = A (A>3)
